Each entry below carries its recorded growth AUC normalised to DMSO control.
# System: P. vulgatus RND KO
# Test: growth AUC normalised to DMSO control (median) (fraction of control); higher = less growth inhibition, active = hit call of the paper;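 note: active when median AUC fell below 0.1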
# Run conditions: 20 µM
// print number alone

Give the observed growth AUC normalised to DMSO control of NC[C@H]1O[C@H](O[C@H]2[C@H](O)[C@@H](O[C@H]3O[C@H](CO)[C@@H](O)[C@H](N)[C@H]3O)[C@H](N)C[C@@H]2N)[C@H](N)[C@@H](O)[C@@H]1O [Kanamycin B] for P. vulgatus RND KO.
1.1

###

# Tested on: S. enterica typhimurium WT
# Test: growth AUC normalised to DMSO control (median) (fraction of control); higher = less growth inhibition, active = hit call of the paper
# Run conditions: 20 µM
Structures can show the parent of a compound that is named as a salt.
Measurement kind: growth AUC normalised to DMSO control

A selection of reference data follows.
CN(C)c1ccc2nc3ccc(=[N+](C)C)cc-3sc2c1 : 0.98 (inactive)
Cc1ccc2c([nH]c(=O)c3c(=O)cc(C(=O)OCCC(C)C)oc32)c1C [Repirinast] : 1.01 (inactive)
CCCC(CCC)C(=O)O : 1 (inactive)
CN1CCN(C(c2ccccc2)c2ccccc2)CC1 [Cyclizine hydrochloride] : 1.01 (inactive)
CCN(CC)CCNC(=O)c1ccc(N)cc1 [Procainamide hydrochloride] : 1 (inactive)

Give the measured growth AUC normalised to DMSO control for CCC(=O)O[C@]1(C(=O)CCl)[C@@H](C)C[C@H]2[C@@H]3CCC4=CC(=O)C=C[C@]4(C)[C@@]3(F)[C@@H](O)C[C@@]21C [Clobetasol propionate]
1 (inactive)

Give the measured growth AUC normalised to DMSO control for O=C1CN(/N=C/c2ccc([N+](=O)[O-])o2)C(=O)N1
0.836 (inactive)

Give the measured growth AUC normalised to DMSO control for CCN(CCCc1ccccc1)CCCc1ccccc1 [Alverine citrate salt]
1 (inactive)

Give the measured growth AUC normalised to DMSO control for CC(C)NC[C@H](O)COc1ccc(CC(N)=O)cc1 [(S,-) Atenolol]
0.987 (inactive)

Give the measured growth AUC normalised to DMSO control for Cc1cc(NS(=O)(=O)c2ccc(N)cc2)nc(C)n1
1 (inactive)

Give the measured growth AUC normalised to DMSO control for Nc1nc2n[nH]nc2c(=O)[nH]1
0.987 (inactive)

Give the measured growth AUC normalised to DMSO control for CC(C)(C#N)c1cc(Cn2cncn2)cc(C(C)(C)C#N)c1
0.991 (inactive)

Give the measured growth AUC normalised to DMSO control for O=c1[nH]cc(F)c(=O)[nH]1
0.809 (inactive)

Give the measured growth AUC normalised to DMSO control for O=C(O)C[C@H](O)C[C@H](O)/C=C/c1c(C2CC2)nc2ccccc2c1-c1ccc(F)cc1
1.01 (inactive)

Give the measured growth AUC normalised to DMSO control for Cc1ccc(Cl)c(Nc2ccccc2C(=O)O)c1Cl [Meclofenamic acid sodium salt monohydrate]
1.01 (inactive)
